Tested on: ProRS (prolyl t-RNA synthetase L482H, parent Dd2)
test-summary: Cross-resistance EC50 assay, ProRS
Format: cell-based
cond: Plasmodium falciparum; SYBR green 72 hour assay; synchronized parasites; 384-well format; strain ProRS (Dd2 parent)
Listing of entries alongside the reported log10 of EC50.
// units: nM (pre-log); metric: EC50; scale: log10

Some entries whose results are on file:
>>> test_value("CCCN(CCC)CC(O)COc1ccccc1C(=O)Nc1ccccc1 (stereo not drawn)")
2.95
>>> test_value("Cc1c(C)n(Cc2ccc(F)cc2)c2ccc(C(=O)NCc3ccco3)cc12")
1.83

Which measured log10 of EC50 value corresponds to CN(C)CCCN(C)C(=O)C1Cc2cc(-c3ccccc3)ccc2N1S(=O)(=O)c1ccccc1 (stereo not drawn) ?
2.57

Now the same for `Cc1cc(Nc2ccc(OCc3ccccc3)cc2)nc2cc(O)ccc12`
2.02

Now the same for COc1ccc(N2CCN(C(CNC(=O)C3CCCCC3)c3ccc4c(c3)OCO4)CC2)cc1 (stereo not drawn)
2.68

* * *

System: GNF156R (PfCARL L830V, S1076I and M81I, parent Dd2)
test-summary: Cross-resistance EC50 assay, GNF156R
Assay type: cell-based
cond: Plasmodium falciparum, SYBR green 72 hour assay, asynchronized parasites, 96-well or 1536-well format
Entry class follows EC50: range 1: < 0.7 µM; range 2: ≥ 0.7 µM and < 1 µM; range 3: ≥ 1 µM

>>> discrete_label("COc1ccc(NC(=O)N2CCCCN3[C@H](CN)[C@H](c4ccc(C#Cc5ccccc5)cc4)[C@@H]3C2)cc1 [BRD1095]")
"range 1"

Please turn your attention to the following entry.
Which class does O=C(NCC(CCCN1CCC(c2c[nH]c3ccccc23)CC1)c1ccccc1)Nc1ccc(Cl)c(Cl)c1 (stereo not drawn) [MMV029272] fall in?
range 1

* * *

Tested on: Dd2
test-summary: Cross-resistance EC50 assay, Dd2 parent
Format: cell-based, Plasmodium falciparum
cond: Plasmodium falciparum, DD2, 72 h, read-out: Dd2 (PARENT) EC50 (µM) Average EC50
Listing of entries alongside the reported EC50.
Respond numerically; units are µM and should not be typed.

Some entries whose results are on file:
>>> test_value("O=C(NCC(CCCN1CCC(c2c[nH]c3ccccc23)CC1)c1ccccc1)Nc1ccc(Cl)c(Cl)c1 (centres unmarked)")
0.285
>>> test_value("COc1ccc(C(=O)C2CC2c2ccc(Cl)cc2)cc1 (centres unmarked)")
1.58
>>> test_value("Cc1ccc(Cn2c(N3CCC(C(=O)NCc4cccs4)CC3)nc3ccccc32)cc1")
0.342
>>> test_value("COc1ccc2c3c([nH]c2c1)[C@H](CO)N(C(C)=O)CC31CCN(C(=O)Nc2ccccc2F)CC1")
0.005

Which measured EC50 value corresponds to `Nc1ccc(-c2nc3cc(Cc4ccc5[nH]c(-c6ccc(N)cc6)nc5c4)ccc3[nH]2)cc1` ?
0.488

* * *

Tested on: ProRS (prolyl t-RNA synthetase L482H, parent Dd2)
test-summary: Cross-resistance EC50 assay, ProRS
Type: cell-based
cond: Plasmodium falciparum; SYBR green 72 hour assay; synchronized parasites; 384-well format; strain ProRS (Dd2 parent)
From the text: To evaluate potential overlapping activity against known antimalarial drug targets, we performed dose-response studies with each compound against our assembled set of drug-resistant lines and their corresponding parents, in an asexual blood stage proliferation assay (Table 1). Comparisons were made to the drug-sensitive strain 3D7 when a parent was unavailable (TM90C2A, W2 and Dd2). […]
Listing of entries alongside the reported pEC50.
# pEC50 is unitless: minus log10 of the molar concentration; print number only

Some entries whose results are on file:
>>> test_value("Nc1ncc(-c2cn[nH]c2)cc1-c1nc2ccc(F)cc2[nH]1")
6.29
>>> test_value("CN(C)Cc1ccc(-c2cc3c(-c4ccc(CN(C)C)cc4)ccnc3[nH]2)cc1.O=C(O)C(F)(F)F")
6.53
>>> test_value("CC(C)c1cccc(C(NC(=O)C2Cc3ccccc3CN2C(=O)c2cccc(N3CCOCC3)c2)C2CCCC2)c1 (centres unmarked)")
6.53
>>> test_value("O=C(NCC(CCCN1CCC(c2c[nH]c3ccccc23)CC1)c1ccccc1)Nc1ccc(Cl)c(Cl)c1 (centres unmarked)")
6.23

Enter reported pEC50 observed with ProRS (prolyl t-RNA synthetase L482H, parent Dd2) for `FC(F)(F)c1cccc(Nc2nc3ccccc3nc2Nc2cccc(C(F)(F)F)c2)c1`
7.03

Now the same for `c1cc(-c2cnc3ccc(-c4ccc(N5CCOCC5)cc4)nn23)ccn1`
7.21

Now the same for COC(=O)c1ccc(C2C3=C(O)CC(c4ccc(F)cc4)CC3=Nc3ccccc3N2C(=O)c2ccccc2)cc1 (centres unmarked)
6.66

Now the same for `O=C(Nc1ccccc1O)c1ccc(Oc2cccc(C(=O)Nc3ccccc3O)c2)cc1`
6.31

Now the same for `CCN(CC)S(=O)(=O)c1ccc(-c2csc(Nc3ccc(C)c(C)c3)n2)cc1`
6.43

* * *

System: GNF156R (PfCARL L830V, S1076I and M81I, parent Dd2)
test-summary: Cross-resistance EC50 assay, GNF156R
Assay type: cell-based
cond: Plasmodium falciparum, SYBR green 72 hour assay, asynchronized parasites, 96-well or 1536-well format
Listing of entries alongside the reported EC50.
Respond numerically; units are µM and should not be typed.

Enter reported EC50 observed with GNF156R (PfCARL L830V, S1076I and M81I, parent Dd2) for `FC(F)(F)c1cccc(Nc2nc3ccccc3nc2Nc2cccc(C(F)(F)F)c2)c1`
0.135

Now the same for `CCCOCc1cc(CN2CCN(c3cccc(Cl)c3)CC2)c(O)c2ncccc12`
1.63

Now the same for `CCCCCCCN(Cc1ccc(OC(C)(C)C(=O)OCC)cc1)C(=O)Nc1ccc(Cl)cc1OCC`
1.08

Now the same for `Cl.c1ccc2c(NCCCCCCNc3c4c(nc5ccccc35)CCCC4)c3c(nc2c1)CCCC3`
0.22

* * *

Tested on: HepG2
test-summary: Hepatocyte toxicity
Type: cell-based, human
cond: hepatocyte toxicity / 3D7 EC50
measured-endpoint: EC50 fold shift compared to asexual stage: Hepatocyte Toxicity

Some entries whose results are on file:
>>> test_value("CCCCCCCN(Cc1ccc(OC(C)(C)C(=O)OCC)cc1)C(=O)Nc1ccc(Cl)cc1OCC")
"> 130"
>>> test_value("COCCNCC(O)Cn1c2ccc(Cl)cc2c2cc(Cl)ccc21 (stereo not drawn)")
"> 10"
>>> test_value("Nc1ccc(-c2nc3cc(Oc4ccc(Oc5ccc6[nH]c(-c7ccc(N)cc7)nc6c5)cc4)ccc3[nH]2)cc1")
"> 300"

Which measured EC50 fold shift compared to asexual stage: Hepatocyte Toxicity value corresponds to OC(CNC1CCCCC1)Cn1c2ccccc2c2ccccc21 (stereo not drawn) ?
> 6.3

Now the same for CCOc1cc2c(cc1OCC)C(c1cc(Cl)ccc1O)NCC2 (stereo not drawn)
> 5

Now the same for COc1ccc(C(=O)C2CC2c2ccc(Cl)cc2)cc1 (stereo not drawn)
> 6

Now the same for `COc1ccccc1CNC(=O)CCn1c(=O)[nH]c2ccsc2c1=O`
> 3

Now the same for `Cc1ccc(Cn2c(N3CCC(C(=O)NCc4cccs4)CC3)nc3ccccc32)cc1`
> 57

Now the same for `COc1ccc(NC(=O)N2CCCCN3[C@H](CN)[C@H](c4ccc(C#Cc5ccccc5)cc4)[C@@H]3C2)cc1`
> 1250

* * *

Listing of entries alongside the reported Hepatocyte Toxicity.
Test system: HepG2
test-summary: Hepatocyte toxicity
Type: cell-based, human
cond: HepG2

Some entries whose results are on file:
>>> test_value("Cc1ccc(Cn2c(N3CCC(C(=O)NCc4cccs4)CC3)nc3ccccc32)cc1")
"> 6.6 µM"
>>> test_value("COc1ccccc1CNC(=O)CCn1c(=O)[nH]c2ccsc2c1=O")
"> 5 µM"
>>> test_value("COc1ccc(N2CCN(C(CNC(=O)C3CCCCC3)c3ccc4c(c3)OCO4)CC2)cc1 (centres unmarked)")
"> 50 µM"
>>> test_value("COCCNCC(O)Cn1c2ccc(Cl)cc2c2cc(Cl)ccc21 (centres unmarked)")
"> 5 µM"

Next up:
Which measured Hepatocyte Toxicity value corresponds to `Cc1c(C)n(Cc2ccc(F)cc2)c2ccc(C(=O)NCc3ccco3)cc12` ?
> 5 µM

* * *

Test system: HepG2
test-summary: Hepatocyte toxicity
Assay type: cell-based, human
cond: hepatocyte toxicity / 3D7 EC50
measured-endpoint: EC50 fold shift compared to asexual stage: Hepatocyte Toxicity

Some entries whose results are on file:
>>> test_value("COc1cc(-c2nc(-c3ccccc3)c(-c3ccccc3)[nH]2)cc(OC)c1O [MMV020750]")
"> 15"
>>> test_value("COc1ccc(N2CCN(C(CNC(=O)C3CCCCC3)c3ccc4c(c3)OCO4)CC2)cc1 (stereo not drawn) [MMV019662]")
"> 147"

Next up:
Enter reported EC50 fold shift compared to asexual stage: Hepatocyte Toxicity observed with HepG2 for CC(NCc1ccccc1)c1cc(Cl)ccc1O (stereo not drawn) [MMV665789]
> 4
